subject of test: LFA-1 binding to immobilized ICAM-1 (Homo sapiens, UniProt P05107+P20701)
Construct: made in house; host or cells: transfected 293 cells (LFA-1)
Sequence (P20701 26-1170): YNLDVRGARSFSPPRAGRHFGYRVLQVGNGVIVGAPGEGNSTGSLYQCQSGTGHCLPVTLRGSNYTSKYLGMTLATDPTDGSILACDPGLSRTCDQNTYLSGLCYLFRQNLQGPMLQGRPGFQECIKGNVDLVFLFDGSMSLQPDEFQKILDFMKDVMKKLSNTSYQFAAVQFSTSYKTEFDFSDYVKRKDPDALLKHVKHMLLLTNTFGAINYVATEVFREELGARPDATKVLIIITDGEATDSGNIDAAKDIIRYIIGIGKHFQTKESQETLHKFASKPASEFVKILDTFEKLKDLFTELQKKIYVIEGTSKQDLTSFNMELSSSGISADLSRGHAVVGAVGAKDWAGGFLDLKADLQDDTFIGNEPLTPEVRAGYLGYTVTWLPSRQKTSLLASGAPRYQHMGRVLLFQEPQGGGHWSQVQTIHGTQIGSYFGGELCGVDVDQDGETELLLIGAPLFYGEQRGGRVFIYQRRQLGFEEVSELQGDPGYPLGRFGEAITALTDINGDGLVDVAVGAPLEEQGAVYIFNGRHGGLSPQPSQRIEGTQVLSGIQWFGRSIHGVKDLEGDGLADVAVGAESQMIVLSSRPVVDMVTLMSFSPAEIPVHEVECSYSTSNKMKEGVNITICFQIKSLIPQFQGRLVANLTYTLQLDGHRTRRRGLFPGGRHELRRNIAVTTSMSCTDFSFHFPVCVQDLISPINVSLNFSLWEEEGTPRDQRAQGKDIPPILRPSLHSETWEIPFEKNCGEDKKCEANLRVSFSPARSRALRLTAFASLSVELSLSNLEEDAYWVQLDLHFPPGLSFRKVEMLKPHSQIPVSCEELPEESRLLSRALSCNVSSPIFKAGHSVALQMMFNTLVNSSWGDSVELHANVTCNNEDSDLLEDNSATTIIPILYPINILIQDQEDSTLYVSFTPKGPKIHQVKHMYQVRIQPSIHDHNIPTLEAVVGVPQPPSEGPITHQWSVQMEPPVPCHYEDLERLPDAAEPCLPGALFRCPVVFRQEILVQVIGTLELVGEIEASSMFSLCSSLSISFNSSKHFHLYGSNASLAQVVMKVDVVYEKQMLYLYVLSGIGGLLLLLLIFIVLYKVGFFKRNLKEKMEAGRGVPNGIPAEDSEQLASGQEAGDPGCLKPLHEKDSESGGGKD
Sequence (P05107 23-769): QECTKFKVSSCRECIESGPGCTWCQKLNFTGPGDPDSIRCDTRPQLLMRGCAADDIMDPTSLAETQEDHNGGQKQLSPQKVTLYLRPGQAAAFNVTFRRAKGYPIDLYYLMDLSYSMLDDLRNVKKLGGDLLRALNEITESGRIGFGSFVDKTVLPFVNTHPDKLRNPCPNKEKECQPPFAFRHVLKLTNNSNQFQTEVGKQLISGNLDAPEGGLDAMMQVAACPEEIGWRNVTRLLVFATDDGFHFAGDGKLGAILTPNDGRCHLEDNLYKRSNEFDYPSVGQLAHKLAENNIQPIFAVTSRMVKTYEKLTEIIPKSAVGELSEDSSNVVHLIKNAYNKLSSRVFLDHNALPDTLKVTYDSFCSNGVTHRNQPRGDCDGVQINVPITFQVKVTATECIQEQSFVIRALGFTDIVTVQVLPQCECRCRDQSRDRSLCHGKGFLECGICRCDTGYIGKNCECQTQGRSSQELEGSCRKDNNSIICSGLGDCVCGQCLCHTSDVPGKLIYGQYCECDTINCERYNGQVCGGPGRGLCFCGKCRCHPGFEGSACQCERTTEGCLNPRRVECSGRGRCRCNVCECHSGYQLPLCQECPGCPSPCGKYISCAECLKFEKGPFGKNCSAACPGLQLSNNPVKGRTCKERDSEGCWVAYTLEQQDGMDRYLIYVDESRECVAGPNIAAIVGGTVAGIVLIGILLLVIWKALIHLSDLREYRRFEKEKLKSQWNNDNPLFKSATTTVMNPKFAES
assay overview: LFA-1/ICAM-1 protein-protein assay (solid-phase ELISA)
test conditions: read-out: LFA-1/ICAM-1 Protein-Protein Assay IC50
Provide the recorded IC50 for the entries that follow.
State the answer as a number, implicitly in nM.

Note IC50 for the molecule shown: `Cc1ccccc1C(=O)NC[C@H](NC(=O)c1ccc(C(=O)NCc2cccc(O)c2)cc1Cl)C(=O)O`
1.1

Note IC50 for the molecule shown: `O=C(NCc1cccc(O)c1)c1ccc(C(=O)N[C@@H](CNC(=O)c2ccc[nH]2)C(=O)O)c(Cl)c1`
2.8

Note IC50 for the molecule shown: `O=C(NC[C@H](NC(=O)c1c(F)cccc1Cl)C(=O)O)c1ccc2[nH]nnc2c1`
47

Note IC50 for the molecule shown: `O=C(CCN1CCCCC1)NC[C@H](NC(=O)c1ccc(C(=O)NCc2cccc(O)c2)cc1Cl)C(=O)O`
1.5

Note IC50 for the molecule shown: `O=C(NCc1cccc(O)c1)c1ccc(C(=O)N[C@@H](CNC(=O)c2ccc3ccccc3n2)C(=O)O)c(Cl)c1`
12

Note IC50 for the molecule shown: O=C(NCc1cccc(O)c1)c1ccc(C(=O)N[C@@H](CNC(=O)c2ccccc2)C(=O)O)c(Cl)c1 [Example 302]
0.9

Note IC50 for the molecule shown: `COc1ccc(C(=O)NC[C@H](NC(=O)c2ccc(C(=O)NCc3cccc(O)c3)cc2Cl)C(=O)O)cc1`
6.3
